# target under test: rat Peripheral-type Benzodiazepine Receptor (PBR), Tspo (gene 24230) (UniProt P16257)
# Sequence (P16257 whole entry, looked up): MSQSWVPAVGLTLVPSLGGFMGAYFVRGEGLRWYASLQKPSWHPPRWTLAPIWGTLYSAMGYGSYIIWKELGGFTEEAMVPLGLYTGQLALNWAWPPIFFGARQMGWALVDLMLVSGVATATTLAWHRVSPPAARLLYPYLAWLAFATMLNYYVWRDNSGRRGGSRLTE
# method summary: NVS_MP_rPBR: NovaScreen (NVS) Membrane Protein Assay for rat Peripheral-type Benzodiazepine Receptor (PBR) (AID 2283335)
Records with an inconclusive call do not appear. Calls of active or inactive are those of the source. The calls were made as follows: active = hit-call score of the fitted dose curve at least 0.9, where 1 is the maximum; inconclusive = response in the unintended direction; inactive = score below 0.9.
A correct response names exactly one class from Yes for active, No for inactive

Sample answers from the record:
{"columns": ["compound", "classification"],
 "data": [
  ["CCOC(=O)C1=NN(c2ccc(Cl)cc2Cl)C(C)(C(=O)OCC)C1 (centres undefined)", "Yes"],
  ["COC(OC)(C(=O)c1ccccc1)c1ccccc1", "Yes"]
]}

I would be grateful if you could indicate the recorded call for `CCCCCCCOC(=O)c1ccc(O)cc1` . No

Also, `CCCCNS(=O)(=O)c1ccccc1` please. Yes

Also, `CCCCNS(=O)(=O)c1ccc(C)cc1` please. Yes

Also, `CCCCC/C=C\C/C=C\CCCCCCCC(=O)O` please. Yes

Also, `N#Cc1ccc(C(c2ccc(C#N)cc2)n2cncn2)cc1` please. Yes

Also, CC(Cl)COP(=O)(OCC(C)Cl)OCC(C)Cl (centres undefined) please. Yes

Also, `CCCCNC(=S)NCCCC` please. Yes

====

# target under test: Signal transducer and activator of transcription 3 (Homo sapiens)
# method summary: ATG_STAT3_CIS: Attagene CIS-FACTORIAL HepG2 Assay for human Signal Transducer and Activator of Transcription 3 (STAT3) (AID 2282963)
# condition details: HepG2, Attagene cis-factorial STAT3 reporter transcription; actives raise or lower the signal
Active and inactive are the calls of the source. The calls were made as follows: active = hit-call score of the fitted dose curve at least 0.9, where 1 is the maximum; inactive = score below 0.9.
A correct response names exactly one class from active, inactive

I would be grateful if you could indicate the recorded call for `CCCCCCO` . inactive

Also, `CCCCC(=O)O` please. inactive

====

# Read-out: Actin alpha 1 (ACTA1), ACTA1 (gene 58)
# method summary: BSK_MyoF_ACTA1: BioMAP Diversity Plus: MyoF Assay for Actin alpha 1 (ACTA1) Biomarker Activity (AID 2284244)
# condition details: primary human lung fibroblasts
# Procedure: BSK_MyoF is a cell-based, multiplexed-readout assay that uses lung fibroblasts, […], with measurements taken at 24 hours after chemical dosing in a microplate: 96-well plate.BSK_MyoF_ACTA1 is an assay component measured in the BSK_MyoF assay. […] The levels of cell surface (or secreted, indicated by the prefix "s") biomarker endpoints were measured by ELISA. […] Plates were read after 6 h.
Activity calls are given as the source filed them. How the source made its calls: active means hit-call score of the fitted dose curve at least 0.9, where 1 is the maximum; inactive means score below 0.9.
A correct response names exactly one class from Y = active, N = inactive

Sample answers from the record:
{"columns": ["molecule", "classification"],
 "data": [
  ["CC/C=C\\C/C=C\\C/C=C\\CCCCCCCC(=O)OC", "Y"],
  ["C=CC(=O)NCOCCCC", "N"],
  ["CCOC(=O)C1=NN(c2ccc(Cl)cc2Cl)C(C)(C(=O)OCC)C1 (stereo unspecified)", "N"],
  ["CC=C(C)C=CC=C(C)C", "N"]
]}

Next item in the queue.
I would be grateful if you could indicate the recorded call for CCC1(C)C(=O)N(Cl)C(=O)N1Cl (stereo unspecified) . N

====

# target under test: CCAAT/enhancer-binding protein beta (Homo sapiens)
# method summary: ATG_C_EBP_CIS: Attagene CIS-FACTORIAL HepG2 Assay for human CCAAT/Enhancer Binding Protein (C/EBP) beta (AID 2282927)
# condition details: HepG2 Attagene cis-factorial transcription factor reporter; actives raise or lower the signal
The source made the active and inactive calls. Rule for the calls: active = hit-call score of the fitted dose curve at least 0.9, where 1 is the maximum; inactive = score below 0.9.
A correct response names exactly one class from TRUE = active, FALSE = inactive

Sample answers from the record:
{"columns": ["compound", "target under test", "classification"],
 "data": [
  ["CCCCC(CC)COS(=O)(=O)O (stereo not given)", "CCAAT/enhancer-binding protein beta (Homo sapiens)", "FALSE"],
  ["O=C(O)c1cc(O)c2ccccc2c1O", "CCAAT/enhancer-binding protein beta (Homo sapiens)", "TRUE"],
  ["CCC(C)(O)CCCC(C)C (stereo not given)", "CCAAT/enhancer-binding protein beta (Homo sapiens)", "FALSE"],
  ["Nc1nc(N)nc(-c2ccccc2)n1", "CCAAT/enhancer-binding protein beta (Homo sapiens)", "FALSE"],
  ["CC(=O)c1ccc(S(=O)(=O)NC(=O)NC2CCCCC2)cc1", "CCAAT/enhancer-binding protein beta (Homo sapiens)", "FALSE"],
  ["C=CC(=O)OCCCCCCOC(=O)C=C", "CCAAT/enhancer-binding protein beta (Homo sapiens)", "FALSE"],
  ["C=Cc1ccc(OC(C)=O)cc1", "CCAAT/enhancer-binding protein beta (Homo sapiens)", "FALSE"],
  ["C=C(C)C(=O)OCCOC(=O)C(=C)C", "CCAAT/enhancer-binding protein beta (Homo sapiens)", "FALSE"]
]}

I would be grateful if you could indicate the recorded call for `COc1nccnc1CC(C)C` . FALSE

Also, O=C1CCCCC1C1CCCCC1 (stereo not given) please. FALSE

Also, `CCCCCCCCCCCCc1ccc(O)cc1` please. FALSE

Also, `CC/C=C\C/C=C\C/C=C\CCCCCCCC(=O)OC` please. FALSE

Also, CCCC(C)C(=O)OCC (stereo not given) please. FALSE

Also, `CCCCCCCCCCCCCc1ccccc1` please. FALSE

Also, `CC=CC(=O)OCC(C)C` please. FALSE

====

# Read-out: Tumor necrosis factor (Homo sapiens) (UniProt P01375)
# Sequence (P01375 whole entry, looked up): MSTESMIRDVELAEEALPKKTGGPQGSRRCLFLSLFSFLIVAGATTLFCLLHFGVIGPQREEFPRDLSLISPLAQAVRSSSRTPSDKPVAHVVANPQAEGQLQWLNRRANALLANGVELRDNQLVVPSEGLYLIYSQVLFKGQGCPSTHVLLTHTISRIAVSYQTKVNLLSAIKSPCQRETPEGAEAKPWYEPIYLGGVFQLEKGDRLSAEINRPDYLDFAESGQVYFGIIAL
# method summary: BSK_BT_xTNFa: BioMAP Diversity Plus: BT Assay for Tumor necrosis factor alpha (TNF-alpha) Biomarker Activity (AID 2284230)
# condition details: primary human B cells with PBMC
Calls of active or inactive are those of the source. Rule for the calls: active = hit-call score of the fitted dose curve at least 0.9, where 1 is the maximum; inactive = score below 0.9.
A correct response names exactly one class from active, inactive

Sample answers from the record:
{"columns": ["compound", "classification"],
 "data": [
  ["CC=C(C)C=CC=C(C)C", "active"],
  ["Fc1ccc(Br)cc1", "inactive"],
  ["C=CC(=O)OCC(C)OCC(C)OCC(C)OC(=O)C=C (stereo not given)", "active"],
  ["CC(C)CCCCCOC(=O)CS", "inactive"],
  ["Clc1cc(Cl)c(Cl)c(Cl)c1Cl", "inactive"]
]}

I would be grateful if you could indicate the recorded call for `CCOC(=O)/C=C\C(=O)OCC` . inactive

Also, CCc1cccc(C)c1N(C(=O)CS(=O)(=O)O)C(C)COC (stereo not given) please. inactive

====

# method summary: CEETOX_H295R_11DCORT: CeeTox H295R High-throughput Steroidogenesis Assay for 11-Deoxycortisol (11DCORT) (AID 2283432)
# condition details: actives raise or lower the signal
The source made the active and inactive calls. How the source made its calls: active means hit-call score of the fitted dose curve at least 0.9, where 1 is the maximum; inactive means score below 0.9.
A correct response names exactly one class from active, inactive

{"columns": ["input smiles", "classification"],
 "data": [
  ["CCN1CN(CC)CN(CC)C1", "inactive"]
]}

I would be grateful if you could indicate the recorded call for `C=CC(=O)OCCCCCCOC(=O)C=C` . inactive

Also, `CC(C)(C)NC(=O)[C@H]1CC[C@H]2[C@@H]3CC[C@H]4NC(=O)C=C[C@]4(C)[C@H]3CC[C@]12C` please. active

Also, `CN(C)c1ccc2nc3ccc(=[N+](C)C)cc-3sc2c1` please. inactive

Also, `C=C[C@@]1(C)CC(=O)[C@]2(O)[C@@]3(C)[C@@H](O)CCC(C)(C)[C@@H]3[C@H](O)[C@H](OC(C)=O)[C@@]2(C)O1` please. active

====

# Read-out: Interleukin-8 (IL8), CXCL8 (gene 3576)
# method summary: BSK_LPS_IL8: BioMAP Diversity Plus: LPS Assay for Interleukin-8 (IL8) Biomarker Activity (AID 2283078)
# condition details: primary human HUVEC with PBMC; actives raise or lower the signal
The source made the active and inactive calls. Rule for the calls: active = hit-call score of the fitted dose curve at least 0.9, where 1 is the maximum; inactive = score below 0.9.
endpoint name: outcome

Example cases with answers are listed next.
{"columns": ["input smiles", "outcome"],
 "data": [
  ["C=C(C)C(=O)OCCCCCCCCCCCC", "inactive"],
  ["CC=C(C)C(C)=O", "inactive"],
  ["CCCCCCCO", "inactive"],
  ["COc1ccc(C(=O)c2ccccc2)c(O)c1", "inactive"],
  ["CCCCCCCCCCCC(C)=O", "inactive"]
]}

What measured outcome goes with `Nc1ccc(C(=O)O)cc1` ? inactive

Also, `C=CC(=O)NCOCCCC` please. inactive

Also, `Oc1ccccc1Cc1ccccc1O` please. inactive

====

# method summary: ATG_TA_CIS: Attagene CIS-FACTORIAL HepG2 Assay for human TA Basal Promoter (AID 2282964)
# condition details: HepG2 Attagene CIS-factorial TA basal promoter reporter; actives raise or lower the signal
The source made the active and inactive calls. The calls were made as follows: active = hit-call score of the fitted dose curve at least 0.9, where 1 is the maximum; inactive = score below 0.9.
A correct response names exactly one class from label 1 (active), label 0 (inactive)

Sample answers from the record:
{"columns": ["compound", "classification"],
 "data": [
  ["CC(=O)/C=C/C1C(C)=CCCC1(C)C (stereo not given)", "label 0"],
  ["CCCCOCC(C)O (stereo not given)", "label 0"],
  ["CCOC(=O)OC(=O)OCC", "label 0"]
]}

I would be grateful if you could indicate the recorded call for CCc1cccc(C)c1N(C(=O)CS(=O)(=O)O)C(C)COC (stereo not given) . label 0

Also, `CCCCCCCCCCCCCc1ccccc1` please. label 0

Also, `CCOC(=O)[C@H](O)[C@@H](O)C(=O)OCC` please. label 0

Also, `Oc1ccccc1Cc1ccccc1O` please. label 0

Also, `N=C1C=CC(=C(c2ccc(N)cc2)c2ccc(N)cc2)C=C1` please. label 1

Also, C=CC(C)(O)CC/C=C(\C)CC (stereo not given) please. label 0

Also, CC1=CCC2CC1C2(C)C (stereo not given) please. label 0

Also, `CCCCCCC=O` please. label 0
